Some molecules, each annotated with its measured Molar enthalpy of transition or fusion.
# protocolText: Molar enthalpy of transition or fusion
# conditionsUsed: Crystal 1; DSC
Dear colleague, please return just the value in kcal/mol, with no unit written.

Would you mind telling me what Molar enthalpy of transition or fusion value was observed for `N#CCCCCCCC#N` ?
5.25

And for `N#CCCCCCCCCC#N` ?
6.73

---

Some compounds, each annotated with its measured Normal melting temperature.
# conditionsUsed: Crystal; DTA
Dear colleague, please return just the value in °C, with no unit written.

Sample answers from the record:
N#CCCCCCCCCCC#N = -7.01
N#CCCCCCCCC#N = -22.01

Would you mind telling me what Normal melting temperature value was observed for `N#CCCCC#N` ?
-31.10

And for `N#CCCCCCCCCCCC#N` ?
21.08
